experiment: small-molecule microarray binders of probe aLefty2, primary screen, biochemical, biotinylated probe, 635/667 nm fluorescence (AID 1094); conditions: higher = more signal;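 note: score merges spot fluorescence near 667 nm with spot signal-to-noise ratio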
Property: composite z-score
Please give only the number in your answer, with no unit.

Use these answered entries as a reference point.
>>> observed_measurement("CCCCCCC#C[Si](O[C@H](c1ccccc1)c1cn(Cc2ccccc2)nn1)(C(C)C)C(C)C")
-0.0153
>>> observed_measurement("CC(C)(C)OC(=O)CC[C@@]1(C(=O)N2CCOCC2)N=C(c2ccc(OCCCO)cc2)O[C@@H]1c1ccccc1")
0.32
>>> observed_measurement("O=C(NCc1ccccc1)[C@@H]1c2ccccc2C(=O)N(Cc2ccccc2Cl)[C@H]1c1ccc(CO)cc1")
0.054

API: the following record is the query input.
Query block: Fill in reported composite z-score for this entry: `CC(C)NC(=O)[C@@H]1c2ccccc2C(=O)N(Cc2cc(F)cc(C(F)(F)F)c2)[C@H]1c1ccc(CO)cc1`
Result block: 0.0071
